Reference for the values: PubChem BioAssay AID1159580

assay: chemical genetic growth profiling, strain panel (AID 1159580);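 also: tested at 20 µM; growth read once vehicle control cultures reached saturation at 30 °C; 1 = growth at the plate median or of vehicle wells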; details: S. cerevisiae deletion strains, growth OD, locus YLR370C, strain arc18, stronger effect = lower value
Hit rate of the full screen: of about 5,500 compounds, about 2,000 (36%) were called active. Roughly 18% stayed inconclusive and do not appear here. This is one part of the list.
For each of the molecules below, state its normalized growth.
Answer field: number only, no words.

For reference, reported normalized growth for "N[C@@H](CCC(=O)N[C@@H](CS)C(=O)NCC(=O)O)C(=O)O" stands at 0.985

For reference, reported normalized growth for "CC(=O)Oc1cccc(O)c1" stands at 1.01

For reference, reported normalized growth for CC1(C)CC2C1CC[C@]1(CBr)CCC3C(CC(=O)O)C(=O)O[C@@]32C1 (stereo partly specified) stands at 1.01

For reference, reported normalized growth for "CC(=O)c1cc(CC=C(C)C)c(O)c(CC=C(C)C)c1" stands at 1

For reference, reported normalized growth for COC1CC2CCC(C)C(O)(O2)C(=O)C(=O)N2CCCCC2C(=O)OC(C(C)CC2CCC(O)C(OC)C2)CC(=O)C(C)/C=C(\C)C(O)C(OC)C(=O)C(C)CC(C)/C=C/C=C/C=C/1C (stereo unspecified) stands at 0.0626

For reference, reported normalized growth for NC(Cn1ccc(=O)c(O)c1)C(=O)O (stereo unspecified) stands at 1.03

For reference, reported normalized growth for CC1(C)CC2C1CC[C@]1(C)CCC3C(C(=O)O)CC(=O)O[C@@]32C1 (stereo partly specified) stands at 1.03

For reference, reported normalized growth for "Cc1nc(N)cc(C[n+]2csc(CCO)c2C)n1" stands at 0.979

For reference, reported normalized growth for "CC(=O)c1ccc(O)c(CC=C(C)C)c1" stands at 0.965

For reference, reported normalized growth for "CC(C)C[C@@H](CN)CC(=O)O" stands at 1.03

For reference, reported normalized growth for "CN[C@@H]1[C@H](O)[C@H](NC)[C@H]2O[C@@]3(O)C(=O)C[C@@H](C)O[C@H]3O[C@@H]2[C@H]1O" stands at 0.995

For reference, reported normalized growth for "CCOC(=O)[C@H](CCc1ccccc1)N[C@@H](C)C(=O)N1CCC[C@H]1C(=O)O" stands at 0.994

For reference, reported normalized growth for CC12CCC(=O)C=C1CCC1C2[C@@H](O)CC2(C)C1CC[C@]2(O)C(=O)COP(=O)(O)O (stereo partly specified) stands at 1.01

For reference, reported normalized growth for C[C@H](CCC(=O)O)[C@H]1CCC2C3C(=O)CC4CC(=O)CC[C@]4(C)C3CC(=O)[C@@]21C (stereo partly specified) stands at 0.987

For reference, reported normalized growth for "CC(=O)Oc1ccc(C(c2ccc(OC(C)=O)cc2)c2ccccn2)cc1" stands at 1.03

For reference, reported normalized growth for CC(=O)O[C@H]1CCC2(C)C3=C(CCC2C1(C)C)[C@]1(C)CCC(C(C)CCC=C(C)C)[C@@]1(C)CC3 (stereo partly specified) stands at 0.988

For reference, reported normalized growth for CC(C)=CCCC(C)[C@@H]1CC[C@]2(C)C3=C(CC[C@@]12C)C1(C)CC[C@H](O)C(C)(C)C1CC3 (stereo partly specified) stands at 1.07

For reference, reported normalized growth for "NCC(=O)c1ccccc1" stands at 1.01

For reference, reported normalized growth for "O=C(OOC(=O)c1ccccc1)c1ccccc1" stands at 0.954

For reference, reported normalized growth for NCC(N)C(=O)c1ccccc1 (stereo unspecified) stands at 1.05

For reference, reported normalized growth for Cc1c(C)c2c(c(C)c1O)CCC(C)(CCCC(C)CCCC(C)CCCC(C)C)O2 (stereo unspecified) stands at 0.995

* * *

For each of the compounds below, state its normalized growth.
test: chemical genetic growth profiling, strain panel (AID 1159580);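 also: tested at 20 µM; growth read once vehicle control cultures reached saturation at 30 °C; 1 = growth at the plate median or of vehicle wells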; details: S. cerevisiae deletion strains, growth OD, locus YNL298W, strain CLA4, stronger effect = lower value
The whole screen tested about 5,500 compounds, of which about 2,000 (36%) were called active. About 18% were inconclusive and are not listed. The list shows a part of the results.

For reference, reported normalized growth for "CCCc1c(OCCCCc2nn[nH]n2)ccc(C(C)=O)c1O" stands at 0.997 (inactive)

For reference, reported normalized growth for O=P1(N(CCCl)CCCl)NCCCO1 (stereo unspecified) stands at 1.04 (inactive)

For reference, reported normalized growth for CC(Cc1cccc(C(F)(F)F)c1)NCCOC(=O)c1ccccc1 (stereo unspecified) stands at 1.01 (inactive)

For reference, reported normalized growth for CC(C)CCCC(C)C1CC[C@@]2(C)C3=C(CC[C@]12C)[C@@]1(C)CC[C@H](O)C(C)(C)C1CC3 (stereo partly specified) stands at 0.967 (inactive)

For reference, reported normalized growth for "COc1cc(C/C=C/c2ccccc2)c(OC)cc1O" stands at 0.986 (inactive)

For reference, reported normalized growth for CC(C)c1ccc2c(c1)CCC1C(C)(C(N)=O)CCCC21C (stereo unspecified) stands at 0.887 (active)

For reference, reported normalized growth for CC(C)=CCCC(C)[C@@H]1CC[C@]2(C)C3=C(CC[C@@]12C)C1(C)CC[C@H](O)C(C)(C)C1CC3 (stereo partly specified) stands at 0.917 (inactive)

For reference, reported normalized growth for "COC(=O)/C(=C1\OC(=O)C(c2ccccc2)=C1O)c1ccccc1" stands at 0.982 (inactive)

For reference, reported normalized growth for "O=C(O)C1=CCCNC1" stands at 0.987 (inactive)

For reference, reported normalized growth for CC(CCC(=O)O)[C@H]1CCC2C3CC[C@@H]4CC(=O)CC[C@]4(C)C3C=C[C@@]21C (stereo partly specified) stands at 0.926 (inactive)

For reference, reported normalized growth for CC(N=C(NC#N)Nc1ccncc1)C(C)(C)C (stereo unspecified) stands at 1.02 (inactive)

* * *

assay: chemical genetic growth profiling, strain panel (AID 1159580);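 also: tested at 20 µM; growth read once vehicle control cultures reached saturation at 30 °C; 1 = growth at the plate median or of vehicle wells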; conditions: S. cerevisiae deletion strains, growth OD, locus YKL085W, strain MDH1
Screen size: about 5,500 compounds; about 2,000 (36%) were called active. Inconclusive results (about 18%) are left out. No stated cut-off is given here; in the data, active means normalized growth mostly below about 0.91 (no sharp cut-off); inconclusive means no clear call, values can overlap the other calls; inactive means mostly above about 0.92. Some of the results follow.
Your answer must be one of the following: YES = active, NO = inactive

Short answer needed: outcome of this test for CC(=O)O[C@@H]1CC[C@@]2(C)C(C[C@@H](OC(C)=O)[C@@]3(C)C4=CC(=O)O[C@@H](c5ccoc5)[C@]4(C)CCC23)C1(C)C (stereo partly specified) ?
NO

Short answer needed: outcome of this test for CC(=O)O[C@@H]1C=C[C@@]2(C)C(C[C@@H](OC(C)=O)[C@@]3(C)C4=CC(=O)O[C@@H](c5ccoc5)[C@]4(C)CCC23)C1(C)C (stereo partly specified) ?
YES

Short answer needed: outcome of this test for CC(=O)OC1CCC2(C)C(CC(OC(C)=O)C3(C)C4=CC(=O)OC(c5ccoc5)C4(C)CCC23)C1(C)C (stereo unspecified) ?
NO

Short answer needed: outcome of this test for CC(=O)O[C@H]1CC[C@@]2(C)C(C[C@@H](OC(C)=O)[C@@]3(C)C4=CC(=O)O[C@@H](c5ccoc5)[C@]4(C)CCC23)C1(C)C (stereo partly specified) ?
NO

Short answer needed: outcome of this test for "O=C(O)c1cc(O)c2c(c1)[C@@H]([C@H]1c3cc(C(=O)O)cc(O)c3C(=O)c3c(O[C@H]4O[C@H](CO)[C@@H](O)[C@H](O)[C@H]4O)cccc31)c1cccc(O[C@H]3O[C@H](CO)[C@@H](O)[C@H](O)[C@H]3O)c1C2=O" ?
NO

Short answer needed: outcome of this test for CC(=O)O[C@@H]1CC2C(C)(C)C(=O)C=C[C@]2(C)C2CC[C@]3(C)C(=CC(=O)O[C@H]3c3ccoc3)[C@@]21C (stereo partly specified) ?
NO

* * *

assay: chemical genetic growth profiling, strain panel (AID 1159580);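 also: tested at 20 µM; growth read once vehicle control cultures reached saturation at 30 °C; 1 = growth at the plate median or of vehicle wells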; conditions: S. cerevisiae deletion strains, growth OD, locus YNL322C, strain KRE1 (second series), stronger effect = lower value
The campaign covered roughly 5,500 compounds. About 2,000 (36%) were called active. Another 18% or so got no clear call; they are omitted. Some of the results follow.
Measured endpoint: normalized growth
Answer field: number only, no words.

For reference, reported normalized growth for "CN(C)[C@@H]1C(=O)C(C(=O)NCN2CCCC2)=C(O)[C@@]2(O)C(=O)C3=C(O)c4c(O)cccc4[C@@](C)(O)[C@H]3C[C@@H]12" stands at 1

For reference, reported normalized growth for "O=C(NCO)c1cccnc1" stands at 1.01

For reference, reported normalized growth for "Nc1ccc(S(=O)(=O)NC(=O)c2ccccc2)cc1" stands at 0.964

For reference, reported normalized growth for "NC(=O)c1cccnc1" stands at 0.98

For reference, reported normalized growth for "O=C(O)c1ccc(S(=O)(=O)N(Cl)Cl)cc1" stands at 0.992

For reference, reported normalized growth for "CN(C)[C@@H]1C(=O)C(C(N)=O)=C(O)[C@@]2(O)C(=O)C3=C(O)c4c(O)ccc(Cl)c4[C@@](C)(O)[C@H]3C[C@@H]12" stands at 0.983

For reference, reported normalized growth for "O=C(O)c1cccnc1" stands at 0.997

For reference, reported normalized growth for "Nc1ccc(C(=O)O)cc1" stands at 1.01

For reference, reported normalized growth for "CCCN(CCC)S(=O)(=O)c1ccc(C(=O)O)cc1" stands at 0.99
